Recorded IC50 for the following compounds
# assayed.system: human LPA1 (Homo sapiens)
# Sequence (Q92633 whole entry): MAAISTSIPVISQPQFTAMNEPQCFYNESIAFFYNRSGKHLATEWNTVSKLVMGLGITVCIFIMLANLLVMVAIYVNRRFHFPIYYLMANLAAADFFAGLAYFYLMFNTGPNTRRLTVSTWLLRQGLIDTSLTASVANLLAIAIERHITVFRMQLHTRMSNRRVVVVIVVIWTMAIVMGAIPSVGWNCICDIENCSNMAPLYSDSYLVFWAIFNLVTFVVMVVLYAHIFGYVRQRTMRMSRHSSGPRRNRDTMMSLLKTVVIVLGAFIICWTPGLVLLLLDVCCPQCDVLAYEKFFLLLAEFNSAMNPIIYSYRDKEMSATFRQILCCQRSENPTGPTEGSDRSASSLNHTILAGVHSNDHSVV
# experimental.protocol: LPA1 functional antagonist assay (LPA-induced calcium flux)
# applied.conditions: CHO cells overexpressing human LPA1, 10 nM LPA, read-out: hLPA1 IC50
Number only, in µM; omit the unit.

Please review the entries below; each comes with its answer.
>  <structure>
Cc1nc(-c2cnn(C)c2CNC(=O)O[C@H](C)c2ccccc2)ccc1O[C@H]1CCC[C@H](C(=O)O)C1

>  <IC50, µM>
0.011

$$$$
>  <structure>
CCCCCCOC(=O)NCc1c(-c2ccc(O[C@H]3CCC[C@H](C(=O)O)C3)cn2)cnn1C

>  <IC50, µM>
0.834

$$$$

GET /values?readout=IC50&item= CN(Cc1c(-c2ccc(O[C@H]3CCC[C@H](C(=O)O)C3)cn2)cnn1C)C(=O)OCc1ccccc1
0.204

GET /values?readout=IC50&item= CC[C@H](C)COC(=O)NCc1c(-c2ncc(O[C@H]3CCC[C@H](C(=O)O)C3)c(C)n2)cnn1C
0.031

Sourced from patent US11384067B2
